Data provenance: ChEMBL document CHEMBL5344453

Target: Quadruplex DNA
Assay: Binding affinity to G-quadruplex BCL-2 5-FAM-AGGGGCGGGCGCGGGAGGAAGGGGGCGGGAGCGGGGCTG-TAMRA-3 (unknown origin) assessed as dissociation constant by measuring thermogram by isothermal titration calorimetry (ITC) assay
Assay type: nucleic-acid assay
PROPERTY_LABEL: Kd (µM)
Numbers only, in µM.

Qu. Request body: readout Kd, system Quadruplex DNA, query CN(C)CCCNC(=O)c1ccc(-n2cc(-c3ccc4[nH]c5ccccc5c4c3)nn2)cc1 . Return the value.
Ans. 10.8

---

Tested on: Quadruplex DNA
Assay: Stabilization of G-quadruplex h-TELO 5-FAM-TTGGGTTAGGGTTAGGGTTAGGGA-TAMRA-3 (unknown origin) assessed as change in melting temperature at 1 uM incubated for 1 hr in dark condition by FRET-based melting assay
Type: nucleic-acid assay
Provide the reported ΔTm of each item.

{"COMPOUND": "Nc1nc(CC(=O)Nc2nc(CC(=O)NCCCn3cc(-c4ccc5oc6ccccc6c5c4)nn3)cs2)cs1", "TARGET_UNDER_TEST": "Quadruplex DNA", "ΔTm": "< 6 °C"}
{"COMPOUND": "CN(C)CCCn1cc(-c2ccc3[nH]c4ccccc4c3c2)nn1", "TARGET_UNDER_TEST": "Quadruplex DNA", "ΔTm": "< 5.5 °C"}
{"COMPOUND": "O=C(Nc1ccc(-n2cc(-c3ccc4[nH]c5ccccc5c4c3)nn2)cc1)C1CCCN1 (centres undefined)", "TARGET_UNDER_TEST": "Quadruplex DNA", "ΔTm": "< 5.5 °C"}
{"COMPOUND": "O=C(Nc1ccc(-n2cc(-c3ccc4oc5ccccc5c4c3)nn2)cc1)C1CCCN1 (centres undefined)", "TARGET_UNDER_TEST": "Quadruplex DNA", "ΔTm": "< 6 °C"}
{"COMPOUND": "Nc1ccc(-n2cc(-c3ccc4oc5ccccc5c4c3)nn2)cc1", "TARGET_UNDER_TEST": "Quadruplex DNA", "ΔTm": "< 6 °C"}
{"COMPOUND": "Nc1ccc(-n2cc(-c3ccc4[nH]c5ccccc5c4c3)nn2)cc1", "TARGET_UNDER_TEST": "Quadruplex DNA", "ΔTm": "< 5.5 °C"}
{"COMPOUND": "NCCn1cc(-c2ccc3[nH]c4ccccc4c3c2)nn1", "TARGET_UNDER_TEST": "Quadruplex DNA", "ΔTm": "< 5.5 °C"}
{"COMPOUND": "CN(C)CCCNC(=O)c1ccc(-n2cc(-c3ccc4[nH]c5ccccc5c4c3)nn2)cc1", "TARGET_UNDER_TEST": "Quadruplex DNA", "ΔTm": "4.5 °C"}

Switching to the query record.
Qu. Request body: readout ΔTm, system Quadruplex DNA, query Nc1nc(CC(=O)Nc2nc(CC(=O)NCCCn3cc(-c4ccc5[nH]c6ccccc6c5c4)nn3)cs2)cs1 . Return the value.
Ans. < 5.5 °C
